Cytochrome P450 2D6 (Homo sapiens) data, read-out AC50;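 also: CYP2D6 member of a cytochrome P450 panel assay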
Sequence (P10635 whole entry): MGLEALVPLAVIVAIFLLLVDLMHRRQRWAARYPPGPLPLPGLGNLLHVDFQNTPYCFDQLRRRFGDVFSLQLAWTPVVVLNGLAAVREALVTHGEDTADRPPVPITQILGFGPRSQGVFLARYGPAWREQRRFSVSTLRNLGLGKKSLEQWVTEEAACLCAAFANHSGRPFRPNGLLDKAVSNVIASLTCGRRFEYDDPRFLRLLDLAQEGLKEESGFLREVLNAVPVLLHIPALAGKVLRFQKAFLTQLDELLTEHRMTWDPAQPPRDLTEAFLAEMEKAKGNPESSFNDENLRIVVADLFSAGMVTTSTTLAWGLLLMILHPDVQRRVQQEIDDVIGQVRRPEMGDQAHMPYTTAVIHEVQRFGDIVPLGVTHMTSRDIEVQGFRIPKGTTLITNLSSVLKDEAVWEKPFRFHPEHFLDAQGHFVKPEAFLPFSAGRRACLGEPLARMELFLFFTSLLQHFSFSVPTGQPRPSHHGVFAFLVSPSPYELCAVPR

Solved entries (count: 5):
                                   compound                         target_desc            value_observed
0  Cc1ccccc1-c1nc(C[S+]([O-])CC(=O)N2CCC3(CC2)OCCO3)c(C)o1 (stereo unspecified)  Cytochrome P450 2D6 (Homo sapiens)    25.1 µM (inconclusive)
1    CCOc1nc(NCCN2CCOCC2)nc(Nc2ccc(C)cc2)n1  Cytochrome P450 2D6 (Homo sapiens)    11.2 µM (inconclusive)
2  COc1ccc(CCN(C)Cc2ccc(OCc3ccccc3)c(OC)c2)cc1OC  Cytochrome P450 2D6 (Homo sapiens)    14.1 µM (inconclusive)
3  CN(C)c1ncc2nc(CCc3ccccc3)c(=O)n(Cc3ccc(F)cc3)c2n1  Cytochrome P450 2D6 (Homo sapiens)    25.1 µM (inconclusive)
4  COC(=O)c1c(C)oc2ccc(N(C(=O)c3ccncc3)S(=O)(=O)c3ccccc3)cc12  Cytochrome P450 2D6 (Homo sapiens)  0.0355 µM (inconclusive)

q: Check Cytochrome P450 2D6 (Homo sapiens) data and give AC50 for O=C(CSc1nnc2c3ccccc3c3ccccc3c2n1)Nc1ccccc1 .
a: 7.94 µM (inconclusive)

q: Check Cytochrome P450 2D6 (Homo sapiens) data and give AC50 for COc1ccccc1CNc1cc(-c2ccccc2C)ncn1 .
a: 15.8 µM (inconclusive)

q: Check Cytochrome P450 2D6 (Homo sapiens) data and give AC50 for CN(C)/C=N/c1ccc2nn(-c3ccccc3)nc2c1 .
a: 25.1 µM (inconclusive)

q: Check Cytochrome P450 2D6 (Homo sapiens) data and give AC50 for COc1ccc(CCC(C)Nc2cccc(F)c2)cc1 (stereo unspecified) .
a: 10 µM (inconclusive)

q: Check Cytochrome P450 2D6 (Homo sapiens) data and give AC50 for Nc1nc(NCCc2ccc(O)cc2)nc2nc(-c3ccco3)nn12 .
a: 10 µM (inconclusive)

q: Check Cytochrome P450 2D6 (Homo sapiens) data and give AC50 for O=C(c1cc(C(F)(F)F)cc(C(F)(F)F)c1)N1CCC2(CC1)CN(c1ccccn1)C2 .
a: 12.6 µM (inconclusive)
